Tested on: Immunoglobulin E (IgE) (Homo sapiens), P01854-1
Sequence (P01854 other isoform, or with tags, fused parts or gaps): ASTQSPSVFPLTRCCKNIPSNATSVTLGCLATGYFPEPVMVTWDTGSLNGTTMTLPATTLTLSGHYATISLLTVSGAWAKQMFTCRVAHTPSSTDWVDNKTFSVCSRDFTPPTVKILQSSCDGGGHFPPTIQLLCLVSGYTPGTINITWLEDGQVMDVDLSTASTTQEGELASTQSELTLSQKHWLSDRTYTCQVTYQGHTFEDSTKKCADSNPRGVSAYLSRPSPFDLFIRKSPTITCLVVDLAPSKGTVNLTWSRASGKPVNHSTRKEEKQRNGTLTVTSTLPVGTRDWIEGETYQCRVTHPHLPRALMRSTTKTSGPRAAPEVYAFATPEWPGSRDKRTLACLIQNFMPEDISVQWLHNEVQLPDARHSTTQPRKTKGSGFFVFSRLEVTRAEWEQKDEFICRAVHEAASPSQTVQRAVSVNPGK
Experiment: inhibition
Settings: 2'-OMe/2'-deoxy mix, dI20, PS; 3' idT [20=dI (G parent); 24=3' inverted dT; phosphorothioate linkage N's left out (5^6, 7^8, 8^9, 15^16, 17^18, 18^19, 19^20, 20^21)]; FACS, 2.5 nM IgE
measured parameter: IC50 (nM)
Give the value in nM but do not write nM after it.

I would be grateful if you could share the reported IC50 for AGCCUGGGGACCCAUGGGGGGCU [ARC1643] .
8

----------
System: Immunoglobulin E (IgE) (Homo sapiens), P01854-1
Experiment: filter
Conditions: dRmY: 2'-deoxy A,G; 2'-OMe C,U; error 5; dPBS Ca/Mg + BSA, RT; 109.7 nM with tRNA + ssDNA competitor (p280)
measured parameter: Kd (nM)
Give the value in nM but do not write nM after it.

// map GGGAGAGGAGAGAACGUUCUACCCGCAGCAUAGCCUGGGGACCCAUGGGGGGCGCUGUCGAUCGAUCGAUCGAUG [ARC1994] to recorded Kd (system: Immunoglobulin E (IgE) (Homo sapiens), P01854-1)
5

----------
Test system: Immunoglobulin E (IgE) (Homo sapiens), P01854-1
Experiment: filter
Settings: 2'-F C and U; KD2 26.5 nM; 1xSHMCK + tRNA
measured parameter: Kd
Returns: string containing the numeric result and its unit.

I would be grateful if you could share the reported Kd for GGAUCCGAGGGUGGGCAAUAGGCUCACAAGGGUCC [rRfY minimer SEQ 94] .
1.01 nM

----------
Test system: Immunoglobulin E (IgE) (Homo sapiens), P01854-1
Assay: filter
Conditions: DNA with 2'-OMe G28; 3' idT [2'-OMe G28; 3' inverted dT at 38]; dPBS Ca/Mg + BSA
measured parameter: Kd

I would be grateful if you could share the reported Kd for GGGGCTACTTTATCCGTTCCTCCTAGTGGGTAGCCCCT [ARC1292] .
22 nM

----------
System: Immunoglobulin E (IgE) (Homo sapiens), P01854-1
Assay: filter
Details: dRmY: 2'-deoxy A,G; 2'-OMe C,U; error 8; dPBS Ca/Mg + BSA, RT
measured parameter: Kd (nM)
Give the value in nM but do not write nM after it.

I would be grateful if you could share the reported Kd for GGGAGAGGAGAGAACGUUCUACAAGCAGUUCUGGGGACCCAUGGGGGAAGUGCGCUGUCGAUCGAUCGAUCGAUG [ARC1992] .
10

----------
Tested on: Immunoglobulin E (IgE) (Homo sapiens), P01854-1
Test: filter
Details: 2'-F C and U; biphasic, KD2 19.0 nM; 1xSHMCK + tRNA, RT
measured parameter: pKd
Keep in mind that pKd stands for -log10 of concentration in molar terms.

I would be grateful if you could share the reported pKd for GGGAAAAGCGAAUCAUACACAAGACGUGAGCAUAUCAUUGAGUGUAGUGGUUCCGGAGUAAGUCGCUCCGCCAGAGACCAACCGAGAA [rRfY clone SEQ 15] .
9.94

----------
System: Immunoglobulin E (IgE) (Homo sapiens), P01854-1
Assay: inhibition
Conditions: ARC1666 chemistry; 5' 60 kDa branched PEG; 3' idT; FACS, IgE-FceR1 on SX38 cells
measured parameter: pIC50
Keep in mind that pIC50 stands for -log10 of concentration in molar terms.

I would be grateful if you could share the reported pIC50 for NNAGCCUGGGNGACCCAUNNNGNNGNNGCUN [ARC1788] .
8.92

----------
Tested on: Immunoglobulin E (IgE) (Homo sapiens), P01854-1
Experiment: inhibition
Conditions: 2'-OMe/2'-deoxy mix, dI, PS; 3' idT [18=dI, 20=dI (G parent); 24=3' inverted dT; phosphorothioate linkage N's left out (5^6, 7^8, 8^9, 15^16, 17^18, 18^19, 19^20, 20^21)]; FACS, 2.5 nM IgE
measured parameter: IC50
Returns: string containing the numeric result and its unit.

I would be grateful if you could share the reported IC50 for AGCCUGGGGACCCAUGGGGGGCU [ARC1728] .
13.2 nM

----------
Test system: Immunoglobulin E (IgE) (Homo sapiens), P01854-1
Experiment: filter
Settings: 2'-OMe C,U and G7; other A,G deoxy; 3' idT [2'-OMe: 3,4,5,7,11,12,13,15,22,23; 2'-deoxy: 1,2,6,8,9,10,14,16,17,18,19,20,21; 24 = 3' inverted dT]; dPBS Ca/Mg + BSA, RT
measured parameter: pKd
Keep in mind that pKd stands for -log10 of concentration in molar terms.

I would be grateful if you could share the reported pKd for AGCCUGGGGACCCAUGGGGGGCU [ARC1253] .
8.70

----------
Test system: Immunoglobulin E (IgE) (Homo sapiens), P01854-1
Assay: filter
Conditions: dRmY; dPBS Ca/Mg + BSA, RT
measured parameter: Kd (nM)
Give the value in nM but do not write nM after it.

// map AGGCUGGGGACCCAUGGGGGCCU [ARC1244] to recorded Kd (system: Immunoglobulin E (IgE) (Homo sapiens), P01854-1)
450

----------
System: Immunoglobulin E (IgE) (Homo sapiens), P01854-1
Test: filter
Conditions: 2'-OMe C,U; 2'-OH A,G; DPBS, 0.1 mg/mL tRNA, RT
measured parameter: Kd (nM)
Give the value in nM but do not write nM after it.

I would be grateful if you could share the reported Kd for GGGAGAGGAGAGAACGUUCUACGAUCUGGGCGAGCCAGUCUGACUGAGGAAGCGCUGUCGAUCGAUCGAUCGAUGAAGGGCG [rRmY clone SEQ 56] .
500

----------
System: Immunoglobulin E (IgE) (Homo sapiens), P01854-1
Assay: FP_none
Details: 2'-OMe G2 and all C,U, rest 2'-deoxy, 3' idT [2'-OMe at 2,3,4,5,11,12,13,15,22,23, 3'-idT at 24]
measured parameter: Kd (nM)
Give the value in nM but do not write nM after it.

I would be grateful if you could share the reported Kd for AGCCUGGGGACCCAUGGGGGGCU [ARC1251] .
7

----------
System: Immunoglobulin E (IgE) (Homo sapiens), P01854-1
Experiment: filter
Settings: 2'-OMe at 1-4,7,33-37; PS 21-22; 3' idT [2'-OMe at 1-4,7,33-37; PS linkage 21-22 (internal N = PS, not a base); 3' inverted dT cap (terminal N, left out)]; DPBS Mg/Ca, BSA
measured parameter: pKd
Keep in mind that pKd stands for -log10 of concentration in molar terms.

I would be grateful if you could share the reported pKd for GGGGCTACTTTATCCGTTCCTCCTAGTGGGTAGCCCC [ARC1404] .
8.74

----------
Test system: Immunoglobulin E (IgE) (Homo sapiens), P01854-1
Experiment: filter
Details: 2'-OMe at 1-4,7,33-37; PS 22-23; 3' idT [2'-OMe at 1-4,7,33-37; PS 22-23; 3' idT cap after 37 (left out)]; DPBS Mg/Ca, BSA
measured parameter: Kd (nM)
Give the value in nM but do not write nM after it.

I would be grateful if you could share the reported Kd for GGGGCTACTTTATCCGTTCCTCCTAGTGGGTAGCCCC [ARC1405] .
2.5

----------
System: Immunoglobulin E (IgE) (Homo sapiens), P01854-1
Assay: filter
Settings: dRmY: 2'-deoxy A,G; 2'-OMe C,U; error 2; dPBS Ca/Mg + 0.1 mg/mL BSA, RT; 87.7 nM with 1 mg/mL tRNA + ssDNA competitor (p280)
measured parameter: Kd (nM)
Give the value in nM but do not write nM after it.

// map GGGAGAGGAGAGAACGUUCUACAGGCAGUUCUGGGGACCCAUGGGGGAAGUGCGCUGUCGAUCGAUCGAUCGAUG [ARC1991] to recorded Kd (system: Immunoglobulin E (IgE) (Homo sapiens), P01854-1)
2

----------
System: Immunoglobulin E (IgE) (Homo sapiens), P01854-1
Experiment: filter
Details: 2'-OMe at 1-4,7,33-37; PS 11-12; 3' idT [2'-OMe at 1-4,7,33-37; PS linkage 11-12 (internal N = PS, not a base); 3' inverted dT cap (terminal N, left out)]; DPBS Mg/Ca, BSA
measured parameter: Kd
Returns: string containing the numeric result and its unit.

I would be grateful if you could share the reported Kd for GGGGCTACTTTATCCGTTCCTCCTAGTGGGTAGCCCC [ARC1394] .
8.1 nM

----------
Tested on: Immunoglobulin E (IgE) (Homo sapiens), P01854-1
Assay: filter
Conditions: ARC1666 pattern; 3'-NH-PEG20K, no idT; dPBS Ca/Mg + BSA, RT
measured parameter: pKd
Keep in mind that pKd stands for -log10 of concentration in molar terms.

I would be grateful if you could share the reported pKd for AGCCUGGGNGACCCAUNNNGNNGNNGCUNN [ARC2369] .
10.52
